This collection of values is drawn from ChEMBL document CHEMBL1139231.

Below are compounds with their Ki as measured on Sodium-dependent noradrenaline transporter (Homo sapiens, UniProt P23975).
Sequence (P23975 whole entry): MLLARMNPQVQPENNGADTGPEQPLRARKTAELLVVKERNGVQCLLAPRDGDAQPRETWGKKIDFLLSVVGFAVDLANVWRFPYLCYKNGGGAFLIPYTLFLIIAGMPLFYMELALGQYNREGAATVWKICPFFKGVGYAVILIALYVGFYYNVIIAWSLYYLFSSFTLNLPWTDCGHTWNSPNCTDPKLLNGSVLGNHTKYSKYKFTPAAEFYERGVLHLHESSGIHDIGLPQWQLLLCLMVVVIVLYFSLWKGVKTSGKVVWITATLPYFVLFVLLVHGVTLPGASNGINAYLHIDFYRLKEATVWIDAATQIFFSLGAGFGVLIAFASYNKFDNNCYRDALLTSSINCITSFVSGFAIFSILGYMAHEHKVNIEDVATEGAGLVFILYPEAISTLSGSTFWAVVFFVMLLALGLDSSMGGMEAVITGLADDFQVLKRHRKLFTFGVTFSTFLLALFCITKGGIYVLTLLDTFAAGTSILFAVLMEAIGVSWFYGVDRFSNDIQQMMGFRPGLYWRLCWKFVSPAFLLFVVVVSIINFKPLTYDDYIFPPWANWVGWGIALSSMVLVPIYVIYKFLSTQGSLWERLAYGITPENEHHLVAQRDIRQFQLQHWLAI

Given the compound CCC(c1ccc(Cl)cc1)C1CCCCN1 (centres undefined) , what is its reported Ki? > 9.2 µM

Now the compound CC(C)C(c1ccc(Cl)cc1)C1CCCCN1 (centres undefined) > 10000 µM

Now the compound CC(c1ccc(Cl)cc1)C1CCCCN1 (stereo in doubt; form 2) > 6.3 µM

Now the compound COC(=O)C(c1ccc(Cl)cc1)C1CCCCN1 (stereo in doubt; form 2) > 6.1 µM

* * *

molecular target: Sodium-dependent serotonin transporter (Homo sapiens); assay: Inhibition of [3H]5-HT uptake into human SERT expressing HEK293 cells
Sequence (P31645 whole entry): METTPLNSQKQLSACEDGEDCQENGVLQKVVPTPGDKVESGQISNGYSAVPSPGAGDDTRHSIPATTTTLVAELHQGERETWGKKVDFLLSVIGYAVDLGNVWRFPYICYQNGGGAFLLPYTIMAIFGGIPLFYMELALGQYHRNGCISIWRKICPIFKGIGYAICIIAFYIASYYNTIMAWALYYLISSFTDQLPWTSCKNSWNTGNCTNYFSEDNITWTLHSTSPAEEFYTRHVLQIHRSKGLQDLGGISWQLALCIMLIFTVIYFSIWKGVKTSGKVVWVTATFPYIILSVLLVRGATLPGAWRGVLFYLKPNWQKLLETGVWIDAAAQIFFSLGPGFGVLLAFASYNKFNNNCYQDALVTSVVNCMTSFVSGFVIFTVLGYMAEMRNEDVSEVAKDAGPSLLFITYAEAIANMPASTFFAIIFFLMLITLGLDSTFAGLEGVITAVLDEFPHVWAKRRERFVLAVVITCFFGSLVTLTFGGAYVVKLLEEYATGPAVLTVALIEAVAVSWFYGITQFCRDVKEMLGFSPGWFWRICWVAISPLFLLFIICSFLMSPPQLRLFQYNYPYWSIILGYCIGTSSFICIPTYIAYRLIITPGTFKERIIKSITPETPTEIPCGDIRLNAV
So I've got a bunch of compounds here, and I need their pIC50 values.
Answer as the number alone; pIC50 is minus log10 of concentration in mol/L.

Given the compound CCCC(c1ccc(Cl)cc1)C1CCCCN1 (stereo not given) , what is its reported pIC50? 5.54

Now the compound COC(=O)C(c1ccccc1)C1CCCCN1 (stereo not given) [METHYLPHENIDATE] 5.29

Now the compound CC(C)CC(c1cccc(Cl)c1)C1CCCCN1 (stereo in doubt; form 2) 6.06

Now the compound CCCC(c1ccc(Cl)c(Cl)c1)C1CCCCN1 (stereo in doubt; form 1) 6.25

Now the compound COc1cccc(C(CC(C)C)C2CCCCN2)c1 (stereo in doubt; form 2) 5.59

Now the compound COc1cccc(C(CC(C)C)C2CCCCN2)c1 (stereo in doubt; form 1) 5.57

Now the compound CCCCC(c1ccc(Cl)c(Cl)c1)C1CCCCN1 (stereo in doubt; form 1) 5.85

Now the compound CCCCCC(c1ccc(Cl)cc1)C1CCCCN1 (stereo in doubt; form 1) 5.82

Now the compound CC(C)CC(c1cccc(Cl)c1)C1CCCCN1 (stereo in doubt; form 1) 5.68

Now the compound CC(c1ccc(Cl)cc1)C1CCCCN1 (stereo in doubt; form 1) 5.72

Now the compound CCC(c1ccc(Cl)cc1)C1CCCCN1 (stereo not given) 5.39

Now the compound Clc1ccc(C(CCCc2ccccc2)C2CCCCN2)cc1 (stereo in doubt; form 1) 5.80

Now the compound CCCCC(c1ccc(Cl)c(Cl)c1)C1CCCCN1 (stereo in doubt; form 2) 6.26

Now the compound CC(c1ccc(Cl)cc1)C1CCCCN1 (stereo in doubt; form 2) 5.33

Now the compound CC(C)CCC(c1ccc(Cl)cc1)C1CCCCN1 (stereo in doubt; form 1) 5.14

Now the compound CCCC(c1ccc(Cl)c(Cl)c1)C1CCCCN1 (stereo in doubt; form 2) 6.74

Now the compound COc1ccc(C(CC(C)C)C2CCCCN2)cc1 (stereo in doubt; form 1) 5.46

Now the compound COc1ccc(C(CC(C)C)C2CCCCN2)cc1 (stereo in doubt; form 2) 5.92

Now the compound CC(C)CC(c1ccc(Cl)c(Cl)c1)C1CCCCN1 (stereo in doubt; form 1) 5.96

Now the compound CC(C)CC(c1ccc(Cl)c(Cl)c1)C1CCCCN1 (stereo in doubt; form 2) 6.54

* * *

molecular target: Sodium-dependent dopamine transporter (Homo sapiens, UniProt Q01959); assay: Inhibition of [3H]DA uptake at human DAT expressing HEK293 cells
Sequence (Q01959 whole entry): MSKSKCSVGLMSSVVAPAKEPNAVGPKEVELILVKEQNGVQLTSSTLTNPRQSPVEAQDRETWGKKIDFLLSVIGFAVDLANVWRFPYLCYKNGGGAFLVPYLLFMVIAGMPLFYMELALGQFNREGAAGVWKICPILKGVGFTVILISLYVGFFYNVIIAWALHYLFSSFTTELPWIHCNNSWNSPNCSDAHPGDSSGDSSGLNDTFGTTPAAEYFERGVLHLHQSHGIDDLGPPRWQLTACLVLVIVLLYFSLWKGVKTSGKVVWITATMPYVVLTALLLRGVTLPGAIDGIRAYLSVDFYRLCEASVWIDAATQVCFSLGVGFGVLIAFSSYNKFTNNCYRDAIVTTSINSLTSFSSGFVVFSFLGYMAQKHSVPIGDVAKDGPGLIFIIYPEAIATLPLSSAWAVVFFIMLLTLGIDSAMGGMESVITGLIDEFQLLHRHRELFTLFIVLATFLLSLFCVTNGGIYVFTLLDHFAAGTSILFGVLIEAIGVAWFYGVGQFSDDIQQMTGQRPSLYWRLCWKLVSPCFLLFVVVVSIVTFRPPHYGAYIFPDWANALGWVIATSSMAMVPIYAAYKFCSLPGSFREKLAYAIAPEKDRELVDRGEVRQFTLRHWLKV
So I've got a bunch of molecules here, and I need their pIC50 values.
Answer as the number alone; pIC50 is minus log10 of concentration in mol/L.

Given the molecule CCCCC(c1ccc(Cl)c(Cl)c1)C1CCCCN1 (stereo in doubt; form 2) , what is its reported pIC50? 7.17

Now the molecule CCCCCC(c1ccc(Cl)cc1)C1CCCCN1 (stereo in doubt; form 2) 6.19

Now the molecule CC(C)CC(c1ccc(Cl)c(Cl)c1)C1CCCCN1 (stereo in doubt; form 1) 8.26

Now the molecule CC(C)CC(c1cccc(Cl)c1)C1CCCCN1 (stereo in doubt; form 1) 8.55

Now the molecule CCCC(c1ccc(Cl)c(Cl)c1)C1CCCCN1 (stereo in doubt; form 1) 8.35

Now the molecule CCC(c1ccc(Cl)cc1)C1CCCCN1 (configuration not stated) 5.55

Now the molecule COc1cccc(C(CC(C)C)C2CCCCN2)c1 (stereo in doubt; form 1) 7.46

Now the molecule Clc1ccc(C(CCCc2ccccc2)C2CCCCN2)cc1 (stereo in doubt; form 1) 6.54

Now the molecule CC(C)CCC(c1ccc(Cl)cc1)C1CCCCN1 (stereo in doubt; form 2) 6.17

Now the molecule CC(c1ccc(Cl)cc1)C1CCCCN1 (stereo in doubt; form 2) 5.82

Now the molecule CC(c1ccc(Cl)cc1)C1CCCCN1 (stereo in doubt; form 1) 7.66

Now the molecule COc1ccc(C(CC(C)C)C2CCCCN2)cc1 (stereo in doubt; form 1) 7.60

Now the molecule CC(C)CC(c1ccc(Cl)c(Cl)c1)C1CCCCN1 (stereo in doubt; form 2) 7.89

Now the molecule CCCCCC(c1ccc(Cl)cc1)C1CCCCN1 (stereo in doubt; form 1) 7.35

Now the molecule CC(C)CC(c1ccc(Cl)cc1)C1CCCCN1 (stereo in doubt; form 2) 6.42

Now the molecule Clc1ccc(C(CCCc2ccccc2)C2CCCCN2)cc1 (stereo in doubt; form 2) 5.85
